Task for the reader: assign each of the following molecules its reported hERG current change (%, negative = inhibition) at 10uM.
system: human ether-à-go-go-related gene (hERG) potassium channel (human, UniProt Q12809);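 also: peak tail current of the secondary pulse compared with the same well before compound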
Sequence (Q12809 whole entry, looked up): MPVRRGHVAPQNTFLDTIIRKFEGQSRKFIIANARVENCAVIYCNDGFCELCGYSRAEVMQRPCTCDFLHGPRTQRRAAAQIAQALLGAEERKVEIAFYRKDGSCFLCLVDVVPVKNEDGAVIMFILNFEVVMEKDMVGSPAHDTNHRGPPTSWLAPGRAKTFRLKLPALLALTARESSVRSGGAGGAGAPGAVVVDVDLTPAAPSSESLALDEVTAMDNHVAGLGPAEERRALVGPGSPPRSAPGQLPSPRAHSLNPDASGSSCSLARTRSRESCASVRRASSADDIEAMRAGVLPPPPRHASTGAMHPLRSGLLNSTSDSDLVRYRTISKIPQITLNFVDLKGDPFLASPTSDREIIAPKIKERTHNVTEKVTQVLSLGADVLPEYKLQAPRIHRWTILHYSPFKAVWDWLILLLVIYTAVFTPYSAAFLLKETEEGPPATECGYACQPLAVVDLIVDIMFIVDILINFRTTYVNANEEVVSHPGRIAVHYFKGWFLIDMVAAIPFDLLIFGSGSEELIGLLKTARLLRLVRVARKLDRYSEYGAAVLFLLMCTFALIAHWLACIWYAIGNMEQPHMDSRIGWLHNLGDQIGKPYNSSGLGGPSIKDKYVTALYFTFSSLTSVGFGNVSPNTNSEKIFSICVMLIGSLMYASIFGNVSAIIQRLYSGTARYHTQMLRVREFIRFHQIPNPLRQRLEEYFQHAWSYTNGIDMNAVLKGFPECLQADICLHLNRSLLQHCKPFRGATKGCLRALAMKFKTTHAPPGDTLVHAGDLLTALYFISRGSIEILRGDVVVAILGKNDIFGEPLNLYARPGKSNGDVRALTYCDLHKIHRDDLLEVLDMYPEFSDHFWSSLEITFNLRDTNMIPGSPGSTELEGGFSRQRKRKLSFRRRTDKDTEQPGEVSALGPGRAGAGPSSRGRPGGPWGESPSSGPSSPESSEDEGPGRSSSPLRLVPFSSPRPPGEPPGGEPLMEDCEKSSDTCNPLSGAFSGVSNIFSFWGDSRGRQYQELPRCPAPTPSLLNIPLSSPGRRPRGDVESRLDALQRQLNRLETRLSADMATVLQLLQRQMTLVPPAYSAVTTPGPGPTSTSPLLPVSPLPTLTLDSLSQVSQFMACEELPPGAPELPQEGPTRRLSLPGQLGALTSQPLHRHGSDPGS
protocolNotes: primary screen, population patch clamp on CHO cells stably expressing hERG; higher = less effect of the substance
Among all 310,000 compounds or so, about 14,000 (4.5%) showed an effect of 50% or more. The effect is printed as a negative number. The list comes from a sample in which strong results are over-represented; it also holds close analogues and randomly drawn compounds.
Write the value in % as a bare number.

Could you please provide reported hERG current change (%, negative = inhibition) at 10uM for Cc1ccccc1S(=O)(=O)Cc1ccc(C(=O)NCCCN(C)Cc2ccccc2)o1 ? Thanks! -56.2

Assign hERG current change (%, negative = inhibition) at 10uM to the following record: CCN1C(=O)C(=C2C=C(C)N(Cc3ccco3)C(C)=C2)C(=O)N(CC)C1=S -35

Identify hERG current change (%, negative = inhibition) at 10uM associated with the molecule COc1ccc2nc(C)cc(Nc3ccc(N4CCOCC4)cc3)c2c1.Cl -60.9

Supply hERG current change (%, negative = inhibition) at 10uM value. Item: O=C(CCC(=O)c1ccc[nH]1)c1ccc(Cl)cc1 -5.4

Entry CCOC(=O)c1ccc(N=C(C)c2c(O)[nH]c(=O)[nH]c2=O)cc1 needs its hERG current change (%, negative = inhibition) at 10uM filled in; supply it. 10.8

Tell me measured hERG current change (%, negative = inhibition) at 10uM for CCOc1ccc2nc(C)cc(Nc3ccc(N4CCOCC4)cc3)c2c1.Cl please. -73

Write down hERG current change (%, negative = inhibition) at 10uM measured for item O=C(NC1CCN(C(=S)NCc2ccco2)CC1)c1ccc(F)cc1 -51.6

Read the entry CCOc1cc2c(cc1OCC)-n1cccc1C(c1cccc([N+](=O)[O-])c1)NC2.Cl (centres unmarked) and write its reported hERG current change (%, negative = inhibition) at 10uM. -59.9

Given the molecule CCOc1cc2c(cc1OCC)-n1cccc1C(c1ccc(OC)cc1)NC2.Cl (centres unmarked) , write its reported hERG current change (%, negative = inhibition) at 10uM. -48.1

Write down hERG current change (%, negative = inhibition) at 10uM measured for item O=C(NC1CCN(C(=S)Nc2ccc(Cl)cc2)CC1)c1ccco1 -72.8

Note hERG current change (%, negative = inhibition) at 10uM for the molecule shown: O=C(CN1CCN(Cc2cccc(F)c2)CC1)Nc1ccccc1F -55.9

Supply hERG current change (%, negative = inhibition) at 10uM value. Item: CCOc1cc2c(cc1OCC)-n1cccc1C(c1cc(C)c(OC)cc1C)NC2.Cl (centres unmarked) -62.1

Look up and report measured hERG current change (%, negative = inhibition) at 10uM for this entry: COCCNC(=S)N1CCC(NC(=O)c2ccco2)CC1 15.7

Please report hERG current change (%, negative = inhibition) at 10uM for the following molecule: CCOc1cc2c(cc1OCC)-n1cccc1C(c1ccc(C)cc1C)NC2.Cl (centres unmarked) -0.599

// fetch hERG current change (%, negative = inhibition) at 10uM given entry CCOC(=O)C1(CCCc2ccccc2)CCN(C(=O)c2cncs2)CC1 -55

// fetch hERG current change (%, negative = inhibition) at 10uM given entry Cc1ccccc1S(=O)(=O)Cc1ccc(C(=O)NCCN(Cc2ccccc2)C(C)C)o1 -55.6

Item C=C(C)c1cccc(C(C)(C)NC(=O)N2CCN(c3ncccn3)CC2)c1 : provide hERG current change (%, negative = inhibition) at 10uM 0.0429

# return recorded hERG current change (%, negative = inhibition) at 10uM for input CC(C)CNC(=S)N1CCC(NC(=O)c2ccco2)CC1 -65.7

Quick one: give measured hERG current change (%, negative = inhibition) at 10uM for CCCCCCCNC(=O)c1cc(-c2ccncc2)nc2ccccc12 7.84

Give hERG current change (%, negative = inhibition) at 10uM for O=C(NC1CCN(C(=S)NCc2ccco2)CC1)c1cccc(F)c1 -47.1

Answer with reported hERG current change (%, negative = inhibition) at 10uM of COc1ccc2nc(C)cc(Nc3ccc(N4CCN(C)CC4)cc3)c2c1 -1.75

State, in one line, measured hERG current change (%, negative = inhibition) at 10uM of CCNC(=S)N1CCC(NC(=O)c2ccco2)CC1 6.16

For the molecule COc1ccc(-n2c(N)c(C(=O)NCc3ccco3)c3nc4ccccc4nc32)c(OC)c1 , report hERG current change (%, negative = inhibition) at 10uM. 0.913

Respond only with hERG current change (%, negative = inhibition) at 10uM recorded for CCOC(=O)C1(CCOc2ccccc2)CCN(C(=O)c2cncs2)CC1 -70.7

Answer with the recorded hERG current change (%, negative = inhibition) at 10uM of O=C(CN1CCN(Cc2ccc(F)cc2)CC1)Nc1ccccc1F only. -35.2

Give the reported value of hERG current change (%, negative = inhibition) at 10uM for this record: CCOc1cc2c(cc1OCC)-n1cccc1C(c1ccc(F)cc1)NC2.Cl (centres unmarked) 0.0384

Supply hERG current change (%, negative = inhibition) at 10uM value. Item: CCOc1cc2c(cc1OCC)-n1cccc1C(c1ccc(OC)c(OC)c1)NC2.Cl (centres unmarked) -30.2

Tell me measured hERG current change (%, negative = inhibition) at 10uM for Cc1c(N2C(=O)c3ccc(Br)cc3C2=O)c(=O)n(-c2ccccc2)n1C please. 3.45

Report hERG current change (%, negative = inhibition) at 10uM for CCN(CC)CCNC(=O)c1cc2c(-c3cccc(OC)c3)nn(C)c2s1 -31.8

Consider the molecule CCOc1ccc(Nc2cc(C)nc(N3CCOCC3)n2)cc1 and give its recorded hERG current change (%, negative = inhibition) at 10uM. 0.875

Find the measured hERG current change (%, negative = inhibition) at 10uM of CCOc1ccc2nc(N3CCOCC3)nc(C)c2c1 and report it. 3.2

Read off the recorded hERG current change (%, negative = inhibition) at 10uM for CCOC(=O)C1(Cc2ccc(OC)cc2)CCN(C(=O)c2cncs2)CC1 -17.6

Dear colleague, please send me the reported hERG current change (%, negative = inhibition) at 10uM for COc1ccc(N(Cc2cc3ccccc3[nH]c2=O)S(=O)(=O)c2ccccc2)cc1 when you can. 2.91

Let me know recorded hERG current change (%, negative = inhibition) at 10uM for CCN(CC)CCCNC(=O)c1cc2c(-c3cccc(OC)c3)nn(C)c2s1 , thanks. -44.7

Name the recorded hERG current change (%, negative = inhibition) at 10uM of the item COCCCNC(=O)c1cc2c(-c3cccc(OC)c3)nn(C)c2s1 in your answer. -5.59

Using the record for Cc1ccc(C)c(-c2nnc(NC(=O)Cc3ccccc3)o2)c1 , state its measured hERG current change (%, negative = inhibition) at 10uM. 16.1

Please report hERG current change (%, negative = inhibition) at 10uM for the following molecule: CCOc1cc2c(cc1OCC)-n1cccc1C(c1ccc(OC(F)F)cc1)NC2.Cl (centres unmarked) -65.3

For the molecule CCN(CC)CCNC(=O)c1ccc(CS(=O)(=O)c2ccccc2C)o1 , report hERG current change (%, negative = inhibition) at 10uM. -24

Determine its reported hERG current change (%, negative = inhibition) at 10uM: O=C(c1cccc(Cl)c1)N1CCN(Cc2ccccc2F)CC1 10.1

Identify hERG current change (%, negative = inhibition) at 10uM associated with the molecule COc1cccc(C(=O)NCCCn2ccnc2)c1 7.29

Return reported hERG current change (%, negative = inhibition) at 10uM. Input molecule: CCc1nc(Nc2ccccc2)c2nnn(Cc3ccccc3)c2n1 8.23

* * *

system: human ether-à-go-go-related gene (hERG) potassium channel (human);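 also: peak tail current of the secondary pulse compared with the same well before compound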
protocolNotes: primary screen, population patch clamp on CHO cells stably expressing hERG; higher = less effect of the substance
The whole screen tested about 310,000 compounds, of which about 14,000 (4.5%) showed an effect of 50% or more. The effect is printed as a negative number. Only a selection was taken, and strong results are over-represented in it overall.
readoutLabel: hERG current change (%, negative = inhibition) at 10uM (%)
Number in %, nothing else.

Determine its reported hERG current change (%, negative = inhibition) at 10uM: COc1ccc(CNC(=O)N2CCN(c3ccc(F)cc3)CC2)cc1Cl -26.1

Give hERG current change (%, negative = inhibition) at 10uM for Cc1cccc(CS(=O)(=O)c2ncc(CO)n2C)c1 16

Give me measured hERG current change (%, negative = inhibition) at 10uM, please, for this compound: O=C(Nc1ccc(N2CCCCC2)cc1)c1cccnc1Cl 13.4

Return value of hERG current change (%, negative = inhibition) at 10uM for input COc1cc(OC)nc(Oc2ccccc2C(=O)Oc2ccc(Cl)cc2)n1 , no commentary. -21.6

Tell me its hERG current change (%, negative = inhibition) at 10uM given CCCOc1ccc(Cn2c(O)cc(=O)[nH]c2=O)cc1 as the entry. 14.1

Quick one: give measured hERG current change (%, negative = inhibition) at 10uM for COc1ccc(C2CN(C)CC2C(=O)c2ccc(C)cc2)cc1Cl (stereo not shown) -63

Item CC1=C(OC(=O)C(C)(C)C)C(C)(C)C(c2ccccc2)OC1=O (stereo not shown) : provide hERG current change (%, negative = inhibition) at 10uM -13.4

For the compound Cc1ccc(NC2=NC(c3ccc(F)cc3)n3c(nc(C)cc3=O)N2)c(C)c1 (stereo not shown) , report hERG current change (%, negative = inhibition) at 10uM. 21.8

Return hERG current change (%, negative = inhibition) at 10uM (reported value) for this compound: Cc1ccsc1-c1nc(C(N)=O)c2[nH]c(=O)n(-c3ccc(Cl)cc3)c2n1 1.51

Query hERG current change (%, negative = inhibition) at 10uM for Cc1ccc(NC(=O)Cn2ccsc2=N)c([N+](=O)[O-])c1.Cl 35.1
